Consider the following variants and their measured scaled log2 fold change readings.
B1: library; numbered along this chain (parent)
chain: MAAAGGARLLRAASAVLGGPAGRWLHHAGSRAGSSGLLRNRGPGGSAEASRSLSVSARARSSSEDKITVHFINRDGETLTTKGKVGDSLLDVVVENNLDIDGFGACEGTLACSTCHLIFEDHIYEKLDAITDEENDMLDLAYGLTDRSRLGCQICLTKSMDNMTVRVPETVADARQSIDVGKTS

variants of: B1; test: scaled log2 fold change in cell abundance, elesclomol vs control (0 = silent mean, 1 = nonsense mean) (scaled log2 ratio); higher = higher viability under elesclomol (loss of FDX1 cuproptosis function); conditions: with ABC1 FDX1 KO; elesclomol 5 nM; glucose 10 mM; 14 days;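 further: variant abundance is its share of total variant reads in each endpoint sample, from next-generation sequencing of the integrated ORF PCR-amplified out of genomic DNA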
Note: the reply should be a number with no unit written.

E107P; 0.92

Entry under review: T80V . Reported scaled log2 fold change?
0.126

And G5R ?
-0.43

And I178L ?
0.552

And G104A ?
0.243

And A32V ?
-0.114

And L53R ?
0.0529

And L53T ?
0.163

And A3V ?
0.0935

And R51N ?
-0.079

And S177W ?
0.0273

The reported measurements were obtained from the supplement of paper PMC12855868.
